# SYSTEM_NAME: OTU domain-containing protein 3 (Homo sapiens)
# TEST_DESCRIPTION: Validation of screening hits, potency titration, in vitro enzymatic, OTU domain-containing protein 3 DUB inhibitors (AID 1645868)
# MEASUREMENT_PARAMETERS: purified OTUD3, ubiquitin-rhodamine cleavage fluorescence, 2 h
Active and inactive are the calls of the source.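 Rule for the calls: active = maximal percent inhibition of the deubiquitinase OTUD3 of at least 30% across the tested doses; inactive = the rest.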
The reply should be one of these categories: 1 (yes) for active, 0 (no) for inactive

Record request — test call for CCCC(O)CCCCCCCc1cc(O)cc(O)c1C(=O)OC(CCC)CCCCCCCc1cc(O)cc(O)c1 (stereo not given)
1 (yes)

Record request — test call for `COC(=O)c1cc2c(ccn2C)n1CC(=O)NC1CCCC1`
0 (no)

Record request — test call for `c1csc(-c2nc(Nc3ccc4c(c3)CCC4)c3ccccc3n2)c1`
0 (no)

Record request — test call for `CC1=C(Cn2c3cccc(=O)c-3nc3ccccc32)CCC(C)(C)C1`
1 (yes)

Record request — test call for `CCOc1ccc2c(c1)c(=O)c(C(=O)c1ccc(C)cc1)cn2CC(=O)Nc1ccc(OC)cc1`
0 (no)

Record request — test call for `CCc1nc(-c2cc(C(=O)N3CCOCC3)c3ccccn23)cs1`
0 (no)

Record request — test call for `CC(C)(C)c1ccc(-c2nnc3n2-c2ccccc2SC3)cc1`
0 (no)

Record request — test call for `C=Cc1ccc(Cn2cc(S(=O)(=O)N3CCOCC3)ccc2=O)cc1`
0 (no)

Record request — test call for `COc1cccc2c1OCC(C(=O)NCc1ccc(F)cc1)=C2`
0 (no)

Record request — test call for `CCc1ccc(-n2c(=O)c3ccccc3n(CC(=O)NCCC3=CCCCC3)c2=O)cc1`
1 (yes)

---

# SYSTEM_NAME: OTU domain-containing protein 3 (Homo sapiens) (UniProt Q5T2D3)
# Sequence (Q5T2D3 whole entry, looked up, the tested form may be a part): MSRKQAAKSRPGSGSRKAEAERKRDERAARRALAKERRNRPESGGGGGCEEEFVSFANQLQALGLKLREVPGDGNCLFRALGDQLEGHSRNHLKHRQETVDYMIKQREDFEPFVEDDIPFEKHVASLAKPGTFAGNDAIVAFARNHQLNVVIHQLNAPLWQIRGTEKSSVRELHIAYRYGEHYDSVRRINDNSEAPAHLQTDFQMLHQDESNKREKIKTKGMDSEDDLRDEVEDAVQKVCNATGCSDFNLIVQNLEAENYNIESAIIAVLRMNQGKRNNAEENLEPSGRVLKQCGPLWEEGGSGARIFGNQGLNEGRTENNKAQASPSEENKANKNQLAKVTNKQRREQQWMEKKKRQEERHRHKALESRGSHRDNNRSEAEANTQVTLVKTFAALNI
# TEST_DESCRIPTION: Validation of screening hits, potency titration, in vitro enzymatic, OTU domain-containing protein 3 DUB inhibitors (AID 1645868)
# MEASUREMENT_PARAMETERS: purified OTUD3, ubiquitin-rhodamine cleavage fluorescence, 2 h
Activity calls are given as the source filed them.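 How the source made its calls: active means maximal percent inhibition of the deubiquitinase OTUD3 of at least 30% across the tested doses; inactive means the rest.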 Positions of bridges follow the written chain, without caps; N, C: chain ends. Residues, ends and D or L forms follow the SMILES beside them. ξ: configuration not given here. *: point of attachment. Pentadecanoyl(3ξ-OH,15-Gua) = N=C(N)NCCCCCCCCCCCCC(O)CC(=O)*
The reply should be one of these categories: Y = active, N = inactive

Record request — test call for `CCn1c(SCC(=O)c2c(N)n(CC(C)C)c(=O)n(C)c2=O)nnc1-c1ccccc1`
Y

Record request — test call for CC1NC(=O)C(CC(N)=O)NC(=O)C(C(C)O)NC(=O)C(Cc2ccc(O)cc2)NC(=O)C(C(C)C)NC(=O)C(NC(=O)CC(O)CCCCCCCCCCCCN=C(N)N)C(C)OC1=O (stereo not drawn) ({Pentadecanoyl(3ξ-OH,15-Gua)}-TVYTNA; ester 1-C; configuration not given here)
Y

Record request — test call for `COc1ccc(-c2nc(SCC(=O)Nc3ccc(C(C)=O)cc3)n[nH]2)cc1`
Y

Record request — test call for O=S(=O)(c1ccccc1)N1CCN2Cc3ccccc3N(Cc3ccccc3)CC2C1 (stereo not drawn)
N

Record request — test call for Cc1ccc(NC2=NC(c3ccco3)n3c(nc(C)cc3=O)N2)c(C)c1 (stereo not drawn)
N

Record request — test call for Cc1ccc(C(=O)N2CCCC3(C2)Nc2cccnc2NC3=NC2CCCC2)s1 (stereo not drawn)
N

Record request — test call for `COCCCN1CCS(=O)(=O)c2c(Cl)c(F)nc(Oc3ccc(C#N)cc3)c21`
N

Record request — test call for COc1ccccc1C(=O)NCC(c1ccc2c(c1)CCCN2C)N1CCCC1 (stereo not drawn)
N

---

# SYSTEM_NAME: OTU domain-containing protein 3 (Homo sapiens) (UniProt Q5T2D3)
# TEST_DESCRIPTION: Validation of screening hits, potency titration, in vitro enzymatic, OTU domain-containing protein 3 DUB inhibitors (AID 1645868)
# MEASUREMENT_PARAMETERS: purified OTUD3, ubiquitin-rhodamine cleavage fluorescence, 2 h
Calls of active or inactive are those of the source.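 Rule for the calls: active = maximal percent inhibition of the deubiquitinase OTUD3 of at least 30% across the tested doses; inactive = the rest.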
The reply should be one of these categories: active, inactive

Record request — test call for `Cc1cc(C)nc(SCCn2c(N3CCC(Cc4ccccc4)CC3)nc3c2c(=O)n(C)c(=O)n3C)n1`
inactive

Record request — test call for `Cc1c2c(nc3ccccc13)-c1ccccc1CC2`
inactive

Record request — test call for `COc1cccc(Cn2nc3n(CC(C)C)c(=O)c4ccc(C(=O)NCC(C)C)cc4n3c2=O)c1`
active

Record request — test call for `CCc1cccc(CC)c1NC(=O)COC(=O)c1cc2cccc(OC)c2oc1=O`
active

Record request — test call for c1cnc(-c2n[nH]c(C3CCN(C4CCNC4)CC3)n2)cn1 (stereo not given)
inactive

---

# SYSTEM_NAME: OTU domain-containing protein 3 (Homo sapiens) (UniProt Q5T2D3)
# TEST_DESCRIPTION: Validation of screening hits, potency titration, in vitro enzymatic, OTU domain-containing protein 3 DUB inhibitors (AID 1645868)
# MEASUREMENT_PARAMETERS: purified OTUD3, ubiquitin-rhodamine cleavage fluorescence, 2 h
Activity calls are given as the source filed them.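 The calls were made as follows: active = maximal percent inhibition of the deubiquitinase OTUD3 of at least 30% across the tested doses; inactive = the rest.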
The reply should be one of these categories: active, inactive

Record request — test call for `CCCc1nc2sc3c(N(CC)CC)ncnc3c2c2c1CCC2`
inactive

Record request — test call for `COC1=CC(=O)c2c(O)c3c(c(C)c2C1=O)C[C@@]1(O)[C@H](O[C@H]2CC[C@H](O[C@H]4C[C@@](C)(O)[C@H](OC(=O)c5c(C)ccc(C)c5O)[C@H](C)O4)[C@@H](C)O2)C(=O)C(C(C)=O)=C(O)[C@@]1(O)C3=O`
active

Record request — test call for `O=C1N[C@@H](Cc2ccccc2)C(=O)N2[C@H]3Nc4ccccc4[C@@]3([C@]34C[C@H]5C(=O)N[C@@H](Cc6ccccc6)C(=O)N5[C@H]3Nc3ccccc34)C[C@@H]12`
active

Record request — test call for Cc1nc2ccccn2c1C1(O)C(=O)Nc2c(Cl)cc(Cl)cc21 (stereo unspecified)
inactive

Record request — test call for `Nc1ccccc1SCc1noc(-c2cccs2)n1`
inactive

Record request — test call for `Cc1noc(-c2cc(=O)n(CC(=O)NCc3ccccc3F)c3ccccc23)n1`
active

Record request — test call for `Cc1csc2ncc(C(=O)N3CCN(c4ccccc4F)CC3)c(=O)n12`
inactive

Record request — test call for `Cc1cc(C)c(O)c(-c2cc(C(=O)Nc3ccccc3Cl)[nH]n2)c1`
active

Record request — test call for `Cc1ccc(C2=Nc3ccccc3N(CC(=O)Nc3cccc(C)c3C)C(=O)C2)cc1C`
inactive

Record request — test call for `CC(C)c1cc2c(c(O)c1O)[C@@]13CCCC(C)(C)[C@@H]1C[C@@H]2OC3=O`
active

Record request — test call for `COc1ccccc1CC(=O)N(C)C(c1ccccc1)c1ccccc1`
inactive

Record request — test call for `CC(C)(C)c1ccc(C(=O)Nc2ccc(Cn3cncn3)cc2)cc1`
inactive

Record request — test call for CC1OC(CC(=O)O)CC23OC12C(=O)c1c(O)cccc1C3=O (stereo unspecified)
inactive

Record request — test call for `CC(C)c1nc2sc3c(N(CCO)CCO)ncnc3c2c2c1COC(C)(C)C2`
inactive

Record request — test call for `Cc1cc(=O)n(CC(=O)Nc2ccccc2C)c(Nc2ccc(F)cc2)n1`
active

Record request — test call for Cc1ccc(C2c3c(-c4ccccc4O)n[nH]c3C(=O)N2Cc2ccco2)cc1 (stereo unspecified)
active

Record request — test call for `Cc1cccc(NC(=O)CN2C(=O)COc3cc(S(=O)(=O)N4CCCC4)ccc32)c1C`
active

Record request — test call for `Cc1cc(N2CCOCC2)nc2ccc(NC(=O)CCC(=O)Nc3ccc(F)cc3)cc12`
inactive

Record request — test call for `Cc1ccc(C(=O)Nc2ccc3c(c2)C(=O)N(C)c2ccccc2O3)cc1C`
inactive

Record request — test call for `O=C(NCc1ccc2c(c1)OCO2)c1nnc(Cc2ccc(F)cc2)o1`
inactive

Record request — test call for `CC(C)(C)c1ccc(C(=O)Nc2ccc(Oc3cccnc3)nc2)cc1`
inactive

Record request — test call for `CC1=C[C@@H](C)CC[C@H]2O[C@@H](C3=C(O)C(=O)C(C)=C4O[C@](O)(C=C43)[C@@H](C)C[C@H](C)C1)[C@H](C)[C@@H](O)[C@H]2C`
active

Record request — test call for `COc1ccc(CCNC(=O)CSc2cn(CCNC(=O)c3ccc(F)cc3)c3ccccc23)cc1OC`
active

Record request — test call for `Oc1sc(C=Nc2cc(Cl)ccc2Cl)c2ccccc12`
inactive

Record request — test call for `O=C(CSc1nnc(Cn2cnc3ccccc32)o1)Nc1ccc([N+](=O)[O-])cc1`
active

Record request — test call for `Cc1cc(=O)n(C)c2c(O)c3c(cc12)c(C)cc(=O)n3C`
inactive

Record request — test call for `COc1ccc(NC(=O)c2ccnc(Nc3ccc(OC)cc3)c2)cc1`
inactive

Record request — test call for `CCNc1oc(-c2ccc(S(=O)(=O)N3CCCCC3)cc2)nc1C#N`
inactive

Record request — test call for `COc1ccc(CNC(=O)CN2C(=O)CC(c3ccccc3)=Nc3ccccc32)cc1`
active

Record request — test call for `O=C(COc1nsnc1N1CCOCC1)Nc1ccccc1F`
inactive

Record request — test call for `COc1ccc(OC)c(CCNC(=O)CCC2=NS(=O)(=O)c3ccc(C(F)(F)F)cc3N2)c1`
active

Record request — test call for Cn1c(=O)c2c(ncn2CC(=O)NC2CCCc3ccccc32)n(C)c1=O (stereo unspecified)
inactive

Record request — test call for `N[C@@H](Cc1ccccc1)C(=O)N1CCC2(CC1)CN(C(=O)c1ccc(Cl)cc1)CCO2`
inactive

Record request — test call for `COc1ccc(Cn2cnc3c([nH]c4ccc(Br)cc43)c2=O)cc1`
inactive

Record request — test call for `Cc1ccc2oc(=O)c(S(=O)(=O)N3CCCCC3)cc2c1`
active

Record request — test call for `COc1ccc(NC(=O)CS(=O)(=O)c2[nH]c(-c3ccc(C)cc3)nc2-c2ccccc2)cc1Cl`
inactive

Record request — test call for `CCCCc1nc2sc3c(SCC(=O)NCc4ccccc4)ncnc3c2c2c1CCC2`
inactive

Record request — test call for `CC1=CC(=O)C(C2=C(O)C(=O)C(C)=CC2=O)=C(O)C1=O`
active

Record request — test call for `Cc1cccc(O)c1-c1nc2c(-c3nc4c(C(=O)O)cccc4o3)cccc2o1`
inactive

Record request — test call for `Fc1cccc(-n2cc(-c3noc(-c4ccc[nH]4)n3)nn2)c1`
inactive

Record request — test call for O=C(NCc1ccc(F)cc1)C1CCCN(c2cnc3nccnc3c2)C1 (stereo unspecified)
inactive
